# TARGET OR TEST SYSTEM: Muscarinic acetylcholine receptor M2 (Homo sapiens, UniProt P08172)
# Sequence (P08172 whole entry): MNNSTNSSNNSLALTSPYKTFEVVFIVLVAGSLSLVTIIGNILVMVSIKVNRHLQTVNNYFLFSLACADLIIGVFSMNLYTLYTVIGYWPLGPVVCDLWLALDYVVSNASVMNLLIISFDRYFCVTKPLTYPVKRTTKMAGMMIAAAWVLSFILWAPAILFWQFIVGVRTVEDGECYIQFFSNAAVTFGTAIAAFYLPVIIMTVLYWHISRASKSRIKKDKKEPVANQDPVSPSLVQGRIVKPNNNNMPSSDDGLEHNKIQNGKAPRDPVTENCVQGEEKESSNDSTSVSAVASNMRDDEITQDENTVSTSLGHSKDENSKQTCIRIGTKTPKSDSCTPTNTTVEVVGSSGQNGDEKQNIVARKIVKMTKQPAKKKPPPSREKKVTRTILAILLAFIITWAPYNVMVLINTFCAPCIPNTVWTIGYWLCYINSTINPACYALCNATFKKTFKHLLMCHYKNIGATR
# METHOD DESCRIPTION: Inhibition of [3H]NMS dissociation from muscarinic M2 receptor in Na,K,Pi buffer
MEASURED PARAMETER: pEC50
Please keep in mind that pEC50 is minus log10 of the molar concentration; only the number is needed.

Query: For the compound C1=C2CN3CC[C@]45c6ccccc6N6[C@@H]7OCC=C8CN9CC[C@]%10%11c%12ccccc%12N([C@H](OC1)[C@@H]([C@H]64)[C@H]2C[C@H]35)[C@H]%10[C@H]7[C@H]8C[C@H]9%11 , what pEC50 is on record?
Reply: 6.36

Query: Given the compound C[N+](C)(C)Cc1c2n(c3ccccc13)Cc1c(C[N+](C)(C)C)c3ccccc3n1C2 , what is its reported pEC50?
Reply: 6.64

Query: Any idea what its pEC50 is? The compound is CN(C)Cc1c2n(c3ccccc13)Cc1c(CN(C)C)c3ccccc3n1C2
Reply: 6.35

---

Kindly supply the reported EC50 values for the records listed here.
# TARGET OR TEST SYSTEM: Muscarinic acetylcholine receptor M2 (Homo sapiens, UniProt P08172)
# METHOD DESCRIPTION: Inhibition of [3H]NMS dissociation from muscarinic M2 receptor in Na,K,Pi buffer
Write the answer as a number in nM, unit excluded.

Query: For the compound C[N+]12CC[C@@]34c5ccccc5N5[C@@H]6OCC=C7C[N+]8(C)CC[C@]9%10c%11ccccc%11N([C@@H]%11OCC=C(C1)[C@H](C[C@@H]32)[C@@H]%11[C@H]54)[C@H]9[C@H]6[C@H]7C[C@@H]%108 (stereo partly drawn) [DIMETHYLCARACURIE V] , what EC50 is on record?
Reply: 8.13

Query: Quick one: EC50 of C=CC[N+](C)(C)Cc1c2n(c3ccccc13)Cc1c(C[N+](C)(C)CC=C)c3ccccc3n1C2 ?
Reply: 110

Query: Given C=CC[N+]12CC[C@@]34c5ccccc5N5[C@@H]6OCC=C7C[N+]8(CC=C)CC[C@]9%10c%11ccccc%11N([C@@H]%11OCC=C(C1)[C@H](C[C@@H]32)[C@@H]%11[C@H]54)[C@H]9[C@H]6[C@H]7C[C@@H]%108 (stereo partly drawn) [DIALLYLCARACURIE V] , state its recorded EC50.
Reply: 11.2

---

Consider the following compounds; for each one, report its pKi.
# TARGET OR TEST SYSTEM: Acetylcholine receptor (Torpedo californica, UniProt P02710+P02712+P02714+P02718)
# Sequence (P02710 whole entry): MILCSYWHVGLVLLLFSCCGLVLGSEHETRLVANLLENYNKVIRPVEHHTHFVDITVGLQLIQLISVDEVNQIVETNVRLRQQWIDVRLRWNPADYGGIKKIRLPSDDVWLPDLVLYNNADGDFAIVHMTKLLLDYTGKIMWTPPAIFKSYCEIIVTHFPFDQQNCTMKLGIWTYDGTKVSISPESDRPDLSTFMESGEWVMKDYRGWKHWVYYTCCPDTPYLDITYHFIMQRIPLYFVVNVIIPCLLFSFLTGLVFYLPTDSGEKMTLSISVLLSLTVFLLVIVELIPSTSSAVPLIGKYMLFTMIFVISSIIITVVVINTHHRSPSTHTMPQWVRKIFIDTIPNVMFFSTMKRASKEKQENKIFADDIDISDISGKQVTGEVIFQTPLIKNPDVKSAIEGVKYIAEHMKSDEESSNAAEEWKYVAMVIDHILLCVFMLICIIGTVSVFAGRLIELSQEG
# Sequence (P02712 whole entry): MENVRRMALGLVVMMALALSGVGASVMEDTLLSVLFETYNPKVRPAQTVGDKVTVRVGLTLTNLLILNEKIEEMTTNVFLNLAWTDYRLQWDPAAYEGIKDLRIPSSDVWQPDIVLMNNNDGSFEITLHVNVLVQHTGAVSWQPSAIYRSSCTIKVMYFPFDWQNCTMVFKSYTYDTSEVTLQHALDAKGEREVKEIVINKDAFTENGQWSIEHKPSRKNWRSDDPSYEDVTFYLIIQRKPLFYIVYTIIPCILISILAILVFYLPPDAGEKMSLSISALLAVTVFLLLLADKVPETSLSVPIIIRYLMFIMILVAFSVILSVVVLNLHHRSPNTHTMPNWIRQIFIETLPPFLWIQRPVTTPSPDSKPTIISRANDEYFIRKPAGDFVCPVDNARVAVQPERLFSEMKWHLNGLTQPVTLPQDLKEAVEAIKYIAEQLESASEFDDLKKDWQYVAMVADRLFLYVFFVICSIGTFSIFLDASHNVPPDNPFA
# Sequence (P02718 whole entry): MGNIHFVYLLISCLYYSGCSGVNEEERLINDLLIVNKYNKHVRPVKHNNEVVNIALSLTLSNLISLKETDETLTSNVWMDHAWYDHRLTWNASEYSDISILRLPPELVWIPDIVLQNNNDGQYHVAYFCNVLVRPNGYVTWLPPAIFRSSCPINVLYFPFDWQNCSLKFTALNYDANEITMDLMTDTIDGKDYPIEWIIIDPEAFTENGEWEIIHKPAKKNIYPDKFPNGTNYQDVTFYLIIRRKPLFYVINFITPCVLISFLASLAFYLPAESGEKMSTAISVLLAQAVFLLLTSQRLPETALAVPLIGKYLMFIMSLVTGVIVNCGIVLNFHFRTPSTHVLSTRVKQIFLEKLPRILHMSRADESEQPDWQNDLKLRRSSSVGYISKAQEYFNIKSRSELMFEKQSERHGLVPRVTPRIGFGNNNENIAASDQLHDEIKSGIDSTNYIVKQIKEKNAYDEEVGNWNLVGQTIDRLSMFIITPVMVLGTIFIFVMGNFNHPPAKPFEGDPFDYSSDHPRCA
# Sequence (P02714 whole entry): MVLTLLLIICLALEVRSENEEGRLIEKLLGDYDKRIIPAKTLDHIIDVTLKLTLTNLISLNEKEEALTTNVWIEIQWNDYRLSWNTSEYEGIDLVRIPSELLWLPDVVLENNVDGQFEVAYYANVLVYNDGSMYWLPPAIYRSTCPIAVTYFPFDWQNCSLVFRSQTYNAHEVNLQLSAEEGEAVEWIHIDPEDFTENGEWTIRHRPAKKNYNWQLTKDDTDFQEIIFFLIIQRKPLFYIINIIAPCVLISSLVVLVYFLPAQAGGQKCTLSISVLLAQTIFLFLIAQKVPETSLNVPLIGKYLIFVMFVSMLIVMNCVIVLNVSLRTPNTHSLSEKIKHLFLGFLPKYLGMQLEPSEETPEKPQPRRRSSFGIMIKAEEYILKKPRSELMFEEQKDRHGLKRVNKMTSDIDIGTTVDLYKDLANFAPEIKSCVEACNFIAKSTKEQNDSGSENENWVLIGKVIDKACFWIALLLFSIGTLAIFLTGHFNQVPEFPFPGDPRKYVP
# METHOD DESCRIPTION: Displacement of (+/-)-[3H]epibatidine from muscle type nAChR of Torpedo californica in hepes buffer
Quick note: pKi values are minus log10 of concentrations in mol/L.

Query: Short answer please: pKi, Acetylcholine receptor (Torpedo californica, UniProt P02710+P02712+P02714+P02718), entry C[N+]12CC[C@@]34c5ccccc5N5[C@@H]6OCC=C7C[N+]8(C)CC[C@]9%10c%11ccccc%11N([C@@H]%11OCC=C(C1)[C@H](C[C@@H]32)[C@@H]%11[C@H]54)[C@H]9[C@H]6[C@H]7C[C@@H]%108 (stereo partly specified)
Reply: 5.28

Query: Under Acetylcholine receptor (Torpedo californica, UniProt P02710+P02712+P02714+P02718): pKi value of C=CC[N+]12CC[C@@]34c5ccccc5N5[C@@H]6OCC=C7C[N+]8(CC=C)CC[C@]9%10c%11ccccc%11N([C@@H]%11OCC=C(C1)[C@H](C[C@@H]32)[C@@H]%11[C@H]54)[C@H]9[C@H]6[C@H]7C[C@@H]%108 (stereo partly specified) ?
Reply: 5.82

Query: What measured pKi is associated with CN(C)Cc1c2n(c3ccccc13)Cc1c(CN(C)C)c3ccccc3n1C2 on Acetylcholine receptor (Torpedo californica, UniProt P02710+P02712+P02714+P02718)?
Reply: 4.97

Query: Request - read-out pKi | tested on Acetylcholine receptor (Torpedo californica, UniProt P02710+P02712+P02714+P02718) | compound C[N+](C)(C)Cc1c2n(c3ccccc13)Cc1c(C[N+](C)(C)C)c3ccccc3n1C2
Reply: 6.48

Query: Which pKi is reported with Acetylcholine receptor (Torpedo californica, UniProt P02710+P02712+P02714+P02718) for this entry: C=CC[N+](C)(C)Cc1c2n(c3ccccc13)Cc1c(C[N+](C)(C)CC=C)c3ccccc3n1C2 ?
Reply: 6.26
